# TESTED_SYSTEM: human GLP1-R (Homo sapiens)
# Sequence (P43220 24-463): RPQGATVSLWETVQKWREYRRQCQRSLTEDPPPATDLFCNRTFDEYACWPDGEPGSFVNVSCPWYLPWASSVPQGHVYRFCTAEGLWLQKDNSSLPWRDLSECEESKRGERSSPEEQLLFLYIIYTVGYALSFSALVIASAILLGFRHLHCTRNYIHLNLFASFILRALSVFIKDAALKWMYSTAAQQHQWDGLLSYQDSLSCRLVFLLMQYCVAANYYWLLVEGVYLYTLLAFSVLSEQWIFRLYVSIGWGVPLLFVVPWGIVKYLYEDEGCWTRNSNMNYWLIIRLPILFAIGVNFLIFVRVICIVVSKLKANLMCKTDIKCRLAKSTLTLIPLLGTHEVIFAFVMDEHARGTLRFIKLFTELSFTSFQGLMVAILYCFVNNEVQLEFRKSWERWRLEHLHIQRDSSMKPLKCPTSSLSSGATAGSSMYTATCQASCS
# PROTOCOL: GLP1-R internalization assay in HEK293 cells
# Format: cell-based
# ASSAY_CONDITIONS: normalized to maximum concentration of GLP-1 (100%)
Starred links: 1 amine or outer side, 2 acyl side, 3 side chain; linkers in the order of their positions; H or OH if unused. Non-standard residues stand in square brackets, D forms with d. Groups on a side chain read outwards from the residue. No end group written: not given here. *: point of attachment. C20 diacid = O=C(O)CCCCCCCCCCCCCCCCCCC(=O)*; C18 diacid = O=C(O)CCCCCCCCCCCCCCCCC(=O)*; αMePhe(2-F) = C[C@](N)(Cc1ccccc1F)C(=O)O; γGlu = O=C(O)[C@H](CCC(=O)[*:2])N[*:1]; αMe4Pal = C[C@](N)(Cc1ccncc1)C(=O)O; αMeY = C[C@](N)(Cc1ccc(O)cc1)C(=O)O; 4Pal = N[C@@H](Cc1ccncc1)C(=O)O; αMeL = CC(C)C[C@](C)(N)C(=O)O; αMeS = C[C@](N)(CO)C(=O)O; Orn = NCCC[C@H](N)C(=O)O; AEEA = NCCOCCOCC(=O)O; Aib = CC(C)(N)C(=O)O
Friendly reminder: Internalization % TOP below 50% is class 1, at or above is class 0.

>  <SUBSTANCE>
H-Y[Aib]QGT[αMePhe(2-F)]TSD[4Pal][αMeS]I[αMeL]LD[Orn]K([AEEA-γGlu-C18 diacid])AQ[αMe4Pal]EFI[dE][αMeY]LIEGGPSSGAPPPSGSE-NH2 [Example 712]

>  <ASSIGNED_CLASS>
class 0

$$$$
>  <SUBSTANCE>
H-Y[Aib]QGTFTSDFS[Orn][αMeL]LDKK([AEEA-γGlu-C18 diacid])AQ[Aib]AFIEYLLE[Aib]G[4Pal]SSGAPPPSGS-NH2 [Example 242]

>  <ASSIGNED_CLASS>
class 1

$$$$
>  <SUBSTANCE>
Y[Aib]QGTFTSDFS[Orn][αMeL]LDKK([AEEA-AEEA-γGlu-C18 diacid])AQ[Aib]AFIEYLLE[dA]GPSSGEPPPSGS-NH2 [Example 155]

>  <ASSIGNED_CLASS>
class 0

$$$$
>  <SUBSTANCE>
H-Y[Aib]QGTFTSD[4Pal]SK[αMeL]LDKK([AEEA-γGlu-C18 diacid])AQ[Aib]AFIEYLIE[Aib]GESSGAPPPSGS-NH2 [Example 280]

>  <ASSIGNED_CLASS>
class 0

$$$$
>  <SUBSTANCE>
H-Y[Aib]QGTFTSDFS[Orn][αMeL]LDKK([AEEA-γGlu-C18 diacid])AQ[Aib]AFIEYLLE[Aib]GPSS[Aib]APPPSGS-NH2 [Example 238]

>  <ASSIGNED_CLASS>
class 1

$$$$

Q: Hi there! Is Internalization % TOP for H-Y[Aib]QGTFTSDFS[Orn][αMeL]LDKK([AEEA-AEEA-γGlu-C18 diacid])AQ[Aib]AFIEYLLE[Aib]G[4Pal]SSGAPPPSGE-NH2 [Example 189] below 50%, do you know?
Result: class 1

Q: H-Y[Aib]QGTFTSDFS[Orn][αMeL]LDKK([AEEA-γGlu-C18 diacid])AQ[Aib]AFIEYLLE[Aib]GPSSGAPPPSGE-NH2 [Example 110] ?
Result: class 1

Q: Okay, and H-Y[Aib]QGTFTSDFSQ[αMeL]LDKK([AEEA-γGlu-C18 diacid])AQ[αMe4Pal]AFIEYLIE[Aib]GESSGAPPPSGE-NH2 [Example 233] ?
Result: class 1

Q: What do we get for H-Y[Aib]QGTFTSDFSR[αMeL]LDKK([AEEA-AEEA-γGlu-C18 diacid])AQ[Aib]AFIEYLLE[Aib]GPSSGAPPPSGS-NH2 [Example 80] ?
Result: class 1

Q: Next up: H-Y[Aib]QGTFTSDFSK[αMeL]LDKK([AEEA-γGlu-C18 diacid])AQ[Aib]AFIEYLIEGGPSSGAPPPSEG-NH2 [Example 49]
Result: class 0

Q: Follow-up entry: H-Y[Aib]QGTFTSDFS[Orn][αMeL]LDKK([AEEA-γGlu-C20 diacid])AQ[Aib]AFIEWLLEGGPSSGAPPPSGS-NH2 [Example 78]
Result: class 0

Q: Please give the result for H-Y[Aib]QGTFTSDYSI[αMeL]LDKQAAK([AEEA-AEEA-γGlu-C20 diacid])QFVEWLIA[Aib]GPSSGEPPPAEG-NH2 [Example 334] too.
Result: class 0
